- Assay info: yeast display, Sf9 membrane polyspecificity reagent, FACS + sequencing; frameworks hold sequencing errors
Assay readout: polyreactivity (PSR sort gate)

Example sequences with recorded polyreactivity (PSR sort gate):
{"Sequence string": "QVQLVESGGGLVQAGGSLRLSCAASGRILFFNAMGWYRQAPGKERELVAAISVSGGSTYYADSVKGRFTISRDNAQNTVYLQMNSLKPEDTAVYYCAKGYDFRRRYDYWGQGTQVTVSS", "polyreactivity (PSR sort gate)": "low polyreactivity"}
{"Sequence string": "QVQLVESGGGLVQAGGSLRLSCAASGFTFPFYAMGWYRPAHRKERELVAAITASGGSTYYADSVKGRFTISRDNAKYTVYLQMNSLKPEDTAVYYCATSIYRGYYYWGQGTQVTVSS", "polyreactivity (PSR sort gate)": "high polyreactivity"}
{"Sequence string": "QVQLEESGGGLVQAGGSLRLSCAASGSILFFNAKGWYRQAPGKERELVADISTGGSTYYADSVKGRFTISRDNAKNTVYLQMNSLKPEDTAVYYCNADYYYFFYTLDYWGQGTQVTVSS", "polyreactivity (PSR sort gate)": "high polyreactivity"}
{"Sequence string": "QVQLVESGGGLVQAGGSLRLSCAASGNTFYGYAIGWYRQAPGKERELVASITLSGDSTYYADSVKGRFTISRDNAKNTVYLQMNSLKPEDTAVYYCAGVYTYPLGYYHYTYDYWGQGTQVTVSS", "polyreactivity (PSR sort gate)": "low polyreactivity"}

Next up:
Record QVQLVESGGGLVQAGGSLRLSCAASGSIFGGYAMGWYRQAPGKERELVAAISSSGGSTYYADSVKGRFTISRDNAKNTVYLQMHSLKPEDTAVYYCASSYHGRSYHLNYWGQGTQVTVSS , field polyreactivity (PSR sort gate): high polyreactivity
